Origin of values: paper PMC9482650

Reported pKd values for the following binders.
- TEST_SYSTEM: T1, SNTG2, Q9NY99
- T1 sequence (Q9NY99 68-166, limits assumed, looked up): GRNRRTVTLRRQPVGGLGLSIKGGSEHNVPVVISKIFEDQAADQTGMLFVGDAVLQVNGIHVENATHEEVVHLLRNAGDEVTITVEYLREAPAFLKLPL
- ASSAY_PROTOCOL: holdup assay
- Design: key: below the threshold = too weak to quantify, mostly under pKd 3.1 to 4
- RUN_CONDITIONS: plain residues with an end cap or a label only (N-terminal biotin on a linker: ahx)
Output: the number by itself.

Sample answers from the record:
>>> measured("GYDWGPATDL [TJP3, O95049]")
4.32
>>> measured("RRRKRKRTYL [HPV49-L2, P36762]")
3.57
>>> measured("TVICWPGSLV [LNX2, Q8N448]")
3.73

Let's switch to this binder now.
Asked: Fill blank: measured pKd of the binder HNAFLSVTTV [PDZRN4, Q6ZMN7] is ____.
Given back: 3.6
